target: T1, human insulin receptor isoform B with C-terminal C9 tag (human, UniProt P06213 28-1382); experiment: 125I-insulin competition SPA, hIR-B membranes, 0.1% BSA
T1 construct: membranes of stably transfected HEK293 cells; also called hIR-B; human IR-B
readout.type: Ki (nM)
Write the answer as a number in nM, unit excluded.

binder: INS Analog 11 (other, single-chain insulin B-L2-A-L1-VHH fusion; also called Ex. 11) FVSQHLCGSHLVEALHLVCGERGFFYTPKTGGGGGGGIVEQCCHSICSLEQLENYCGPGPAPGPAPGPAPGPAPGPAPGPAPGPAPGPAEVQLLESGGGLVQPGGSLRLSCAASGRYIDETAVAWFRQAPGKEREFVAGIGGGVDITYYADSVKGRFTISRDNSKNTLYLQMNSLRPEDTAVYYCAARPGRPLITSKVADLYPYWGQGTLVTVSSPP
numeric.readout: 164

Give the reported value of Ki for this record: INS Analog 30 (other, single-chain insulin B-L2-A-L1-VHH fusion; also called Ex. 30) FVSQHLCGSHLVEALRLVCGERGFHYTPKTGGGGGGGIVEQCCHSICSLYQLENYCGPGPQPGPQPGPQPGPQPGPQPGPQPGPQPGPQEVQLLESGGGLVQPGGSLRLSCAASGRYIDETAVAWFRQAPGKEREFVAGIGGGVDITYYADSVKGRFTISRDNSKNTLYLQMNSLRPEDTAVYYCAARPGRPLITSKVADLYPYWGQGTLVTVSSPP
100
